These entries and their values trace back to PubChem BioAssay (NCI).

The reader will find reported GI50 values listed item by item below.
Test system: HT29 colon
Assay: NCI tumour cell line growth inhibition, 48 h

CHEM_SMILES	TEST_SYSTEM	EXPERIMENTAL_RESULT
CC[n+]1ccc2c(c1)C(=O)c1nccc3c1c-2nc1ccccc13	HT29 colon	4.15 µM
NNC(=O)c1cnn(-c2ccnc3c(C(F)(F)F)cccc23)c1N	HT29 colon	> 100 µM
ClCc1ccccc1CSc1ncnc2nc[nH]c12	HT29 colon	> 60 µM
O=C(/C=C(\[O-])c1ccccc1)CCCCCCC(=O)/C=C(\[O-])c1ccccc1.O=C(/C=C(\[O-])c1ccccc1)CCCCCCC(=O)/C=C(\[O-])c1ccccc1.O=C(/C=C(\[O-])c1ccccc1)CCCCCCC(=O)/C=C(\[O-])c1ccccc1.[La+3].[La+3]	HT29 colon	> 50 µM
COC(=O)c1c2c(c(C)[n+]([O-])c1C)C(=O)C=CC2=O	HT29 colon	2.41 µM

Incoming: GI50 of "O=C1CSC(N2CCN(c3cccc(Cl)c3)CC2)=N1" on HT29 colon?
Outgoing: 46 µM

Incoming: GI50 of "O=C1c2ccccc2C(=O)c2c1ccc1[nH]c(CCl)nc21" on HT29 colon?
Outgoing: 1.89 µM

Incoming: GI50 of "Cc1c(N2C(=O)/C(=C\c3ccccc3O)N=C2c2ccccc2)c(=O)n(-c2ccccc2)n1C" on HT29 colon?
Outgoing: > 100 µM

Incoming: GI50 of "O=[n+]1c(CBr)c(CBr)n([O-])c2ccccc21" on HT29 colon?
Outgoing: 1.91 µM

---

Test system: SNB-75 CNS
Assay: NCI tumour cell line growth inhibition, 48 h
Label condition met when TGI >= 10 µM; otherwise condition not met.

Example results:
MOLECULE	ASSIGNED_LABEL
O=C1CCC(NC(=O)c2ccccc2)C(=O)N1 (stereo unspecified)	condition met
OCc1ccccc1C1CSCSC1	condition met
Cn1cc(C2=C(c3ccc(OC[C@@H](O)CO)cc3)C(=O)NC2=O)c2ccccc21	condition met
O=C(N/N=C/c1cccc(O)c1O)N/N=C/c1cccc(O)c1O	condition met
COc1nc2c(cc1S(=O)(=O)c1ccccc1)CCc1c-2cnn1-c1ccccc1Cl	condition met

Incoming: Say whether "C[C@@H]1C[C@H](O)[C@]2(O)O[C@@H]3C[C@@]4(C=O)[C@@H](CC=C5[C@@H]4CC[C@]4(C)[C@@H](C6=CC(=O)OC6)CC[C@]54O)C[C@H]3O[C@@H]2O1" shows TGI of 10 µM or more.
Outgoing: condition not met

Incoming: Say whether "Cc1nc(Cl)c(CBr)c(Cl)n1" shows TGI of 10 µM or more.
Outgoing: condition not met

Incoming: Say whether "CC[n+]1ccc2c(c1)C(=O)c1nccc3c1c-2nc1ccccc13" shows TGI of 10 µM or more.
Outgoing: condition not met

Incoming: Say whether "CCn1c(=O)c2c3cc(O)ccc3oc2c2ccc(O)cc21" shows TGI of 10 µM or more.
Outgoing: condition met

Incoming: Say whether "O=C(O)c1cc(S(=O)(=O)N=NC=C2c3ccccc3N(O)c3ccccc32)ccc1O" shows TGI of 10 µM or more.
Outgoing: condition not met

---

The reader will find reported TGI values listed item by item below.
System: HT29 colon
Test: NCI tumour cell line growth inhibition, 48 h

The cases that follow already have their TGI on record.
> print(dat)
                                   compound  test.system  experimental.result
1  CC(C)CCNC(=O)c1ccc(CNC(=O)/C=C/c2ccc(OCc3ccccc3)cc2)cc1   HT29 colon             > 100 µM
2        O=C1CSC(N2CCN(c3cccc(Cl)c3)CC2)=N1   HT29 colon             > 100 µM
3  CN1CCN(Cc2ccc(NC(=O)c3cncc(C#Cc4cnc(N)c5ccccc45)c3)cc2C(F)(F)F)CC1   HT29 colon              1.29 µM
4  C[C@]12CCC(=O)C=C1CC[C@@H]1C2CC[C@]2(C)NC(=O)C(C#N)CC12 (stereo not given in full)   HT29 colon             > 100 µM

Incoming: // lookup TGI for "CC(C)c1c(P(=O)(c2ccccc2)c2ccccc2)n(C)c2ccccc12"
Outgoing: > 100 µM

Incoming: // lookup TGI for "CC1(C)N=C(N)N=C(N)N1c1ccc(CCCCc2ccc(S(=O)(=O)F)cc2Cl)c(Cl)c1"
Outgoing: 298 µM

Incoming: // lookup TGI for "O=C1/C(=C/c2ccc(Br)s2)NC(=S)N1CN1CCOCC1"
Outgoing: > 100 µM

Incoming: // lookup TGI for "CN1CN(c2ccccc2)C2(CCN(CCCC3(c4cccs4)OCCO3)CC2)C1=O"
Outgoing: > 100 µM

Incoming: // lookup TGI for "NS(=O)(=O)c1ccc(-n2nc(-c3ccc(Br)cc3)ccc2=O)cc1"
Outgoing: > 10 µM

Incoming: // lookup TGI for O=S(=O)(O)C(O)/C=C/c1ccccc1 (stereo not given)
Outgoing: > 100 µM

---

Tested on: TK-10 renal
Experiment: NCI tumour cell line growth inhibition, 48 h
The reader will find reported TGI values listed item by item below.

The cases that follow already have their TGI on record.
> print(dat)
                                   molecule  experimental.result
1       NCCCC(N)C(=O)O (stereo unspecified)             > 100 µM
2               C/C(=N\NC(N)=S)c1ccc(C)cc1C             > 100 µM
3           CN(C)c1ccc2c(c1)oc(=O)c1ccccc12                40 µM
4              O=C1CC[C@H]2CNC(=O)C[C@H]2C1             > 100 µM
5  O=C(O)c1cc(S(=O)(=O)N=NC=C2c3ccccc3N(O)c3ccccc32)ccc1O                50 µM
6         N#CC(C#N)=C1CCCS(=O)(=O)c2ccccc21             > 100 µM
7  Cc1cccc(C(C)(C)C)c1NC(=O)C(=O)Cc1nc2ccccc2s1             > 100 µM
8  CC[n+]1ccc2c(c1)C(=O)c1nccc3c1c-2nc1ccccc13              16.8 µM

Incoming: // lookup TGI for "Cc1cc(C)c2c(n1)S(=O)(=O)N(CCCN1CCN(c3cccc(C(F)(F)F)c3)CC1)/C(=C(\O)c1ccc(Cl)cc1)C2=O"
Outgoing: 11.9 µM

Incoming: // lookup TGI for "Cc1oc2nc(N(C)C)n3nnnc3c2c1C"
Outgoing: > 100 µM

Incoming: // lookup TGI for "CCN(CC)CCCn1c(=O)c2cccnc2n2c3c(=O)n(C)c(=O)n(C)c3nc12"
Outgoing: > 100 µM

---

Test system: KM12 colon
Assay: NCI tumour cell line growth inhibition, 48 h
MEASUREMENT_LABEL: TGI

The cases that follow already have their TGI on record.
> print(dat)
                                chem.smiles  measurement.label  experimental.result
1   O=C1c2ccccc2C(=O)c2c1ccc1[nH]c(CCl)nc21                TGI              10.8 µM
2  COc1cc([C@@H]2c3cc4c(cc3C[C@H]3COC(=O)[C@@H]32)OCO4)cc(OC)c1OC                TGI              > 50 µM

Incoming: // lookup TGI for "Cc1ccc(C(=O)Nc2ccc(CP(=O)(O)O)cc2)cc1NC(=O)c1cccc(NC(=O)Nc2cccc(C(=O)Nc3cc(C(=O)Nc4ccc(CP(=O)(O)O)cc4)ccc3C)c2)c1"
Outgoing: > 100 µM

Incoming: // lookup TGI for "Fc1ccc(-c2nn(-c3ccccc3)cc2-c2nc3ccccc3o2)cc1"
Outgoing: > 100 µM

Incoming: // lookup TGI for "O=C(/C=C/c1cccs1)c1ccc(Cl)cc1"
Outgoing: > 100 µM

---

Test system: A549 NSCLC
Experiment: NCI tumour cell line growth inhibition, 48 h
MEASUREMENT_LABEL: GI50

The cases that follow already have their GI50 on record.
> print(dat)
                                chem.smiles  experimental.result
1  COc1cc2c(c(OC)c1OC)-c1ccc(NCc3ccccc3)c(=O)cc1[C@@H](NC(C)=O)CC2             0.453 µM
2  Cc1c(N2C(=O)/C(=C\c3ccccc3O)N=C2c2ccccc2)c(=O)n(-c2ccccc2)n1C             > 100 µM
3                  S=C1NCCN1C1=Nc2ccccc2CO1             > 100 µM
4  NNC(=O)c1cnn(-c2ccnc3c(C(F)(F)F)cccc23)c1N             > 100 µM
5  COc1nc2c(cc1S(=O)(=O)c1ccccc1)CCc1c-2cnn1-c1ccccc1Cl              4.97 µM

Now take the following compound into account.
Incoming: // lookup GI50 for "CC1=C(CCCOC(=O)NCCCl)C2=C(C)C3(CC3)[C@@](C)(O)C(=O)C2=C1"
Outgoing: 3.42 µM
